Kindly state half-life at 1 μM for each of the entries shown.
Assay: Microsomal metabolic stability assay
Assay type: in vitro ADME
Details: pH 7.4; human liver microsomes, 0.5 mg/mL protein, 1 μM compound; read-out: Human LM T½
Give bare numbers, in h.

Here are 5 compounds together with their reported answers.
Query: Endpoint output: half-life at 1 μM of [2H]C([2H])([2H])NC(=O)c1cnc(Nc2ccc(F)cn2)cc1Nc1nn(C)c2ccn(CC)c(=O)c12 . Value?
Result: 0.996

Query: I am curious: what half-life at 1 μM value has been reported for [2H]C([2H])([2H])NC(=O)c1cnc2nc1Nc1cc(cc(-c3ncn(C)n3)c1OC)COCc1cc(ccc1F)N2 ?
Result: 1.12

Query: Returns the measured half-life at 1 μM for the input compound. Input: [2H]C([2H])([2H])NC(=O)c1cnc(Nc2ccn(C)n2)cc1Nc1ccc2cnn(CC)c2c1OC
Result: 2.41

Query: Looking for the measured half-life at 1 μM of [2H]C([2H])([2H])NC(=O)c1cnc(Nc2cccc(C#N)n2)nc1Nc1cccc(-c2ncn(C)n2)c1OC , can you help?
Result: 3.6

Query: // query half-life at 1 μM value for entry [2H]C([2H])([2H])NC(=O)c1cnc(NC(=O)C2CC2)cc1Nc1cn(C)c2ccn(CC)c(=O)c12
Result: 1.53

List reported half-life at 1 μM for each of these compounds:
1. [2H]C([2H])([2H])NC(=O)c1cnc(Nc2ccc(F)cn2)cc1Nc1ncc2cnn(CC)c2c1OC
2. [2H]C([2H])([2H])NC(=O)c1cnc(Nc2ccncn2)cc1Nc1cc(F)c2cnn(CC)c2c1OC
3. [2H]C([2H])([2H])NC(=O)c1cnc(NC(=O)C2CC2)cc1Nc1ccn2ncc(C#N)c2c1OC
4. [2H]C([2H])([2H])NC(=O)c1cnc(NC(=O)C2CC2)cc1Nc1cc(F)c2cnn(CC)c2c1OC
5. [2H]C([2H])([2H])NC(=O)c1cnc(NC(=O)C2CC2)cc1Nc1cn(C)c2c(F)cn(CC(F)F)c(=O)c12
6. [2H]C([2H])([2H])NC(=O)c1cnc(NC(=O)C2CC2)cc1Nc1csc2cnn(CC(F)(F)F)c(=O)c12
7. CNC(=O)c1cnc(NC(=O)C2CC2)cc1Nc1nn(C)c2ccn(CC(F)(F)F)c(=O)c12

Result:
[0.791, 0.289, 0.633, 0.392, 1.52, 3.73, 2.87]
